pIC50 values for the molecules below.
biological target: AAK1 (Homo sapiens); construct: HA; expressed in transfected cells; host or cells: HEK293F; assay: HEK281 cell-based assay (phospho-mu2 Western blot in transfected HEK293F cells); details: 3 hours incubation, read-out: CBA IC50
pIC50: −log10 of the molar value.

MOLECULE | pIC50
COc1ccccc1-c1cnc2ccc(NCCOCC(C)C)nn12 | ≥ 6.00

Note: attention shifts to another entry.
Summary for this molecule, `NCc1ccc(-c2cnc3ccc(NCCOC4CCCC4)nn23)cc1` : pIC50 is ≥ 7.00

====

target: AAK1 (Homo sapiens, UniProt Q2M2I8); construct: HA; expressed in transfected cells; host or cells: HEK293F; experiment: HEK281 cell-based assay (phospho-mu2 Western blot in transfected HEK293F cells); settings: 3 hours incubation, read-out: CBA IC50
Sequence (Q2M2I8 1-863 isoform Q2M2I8-2): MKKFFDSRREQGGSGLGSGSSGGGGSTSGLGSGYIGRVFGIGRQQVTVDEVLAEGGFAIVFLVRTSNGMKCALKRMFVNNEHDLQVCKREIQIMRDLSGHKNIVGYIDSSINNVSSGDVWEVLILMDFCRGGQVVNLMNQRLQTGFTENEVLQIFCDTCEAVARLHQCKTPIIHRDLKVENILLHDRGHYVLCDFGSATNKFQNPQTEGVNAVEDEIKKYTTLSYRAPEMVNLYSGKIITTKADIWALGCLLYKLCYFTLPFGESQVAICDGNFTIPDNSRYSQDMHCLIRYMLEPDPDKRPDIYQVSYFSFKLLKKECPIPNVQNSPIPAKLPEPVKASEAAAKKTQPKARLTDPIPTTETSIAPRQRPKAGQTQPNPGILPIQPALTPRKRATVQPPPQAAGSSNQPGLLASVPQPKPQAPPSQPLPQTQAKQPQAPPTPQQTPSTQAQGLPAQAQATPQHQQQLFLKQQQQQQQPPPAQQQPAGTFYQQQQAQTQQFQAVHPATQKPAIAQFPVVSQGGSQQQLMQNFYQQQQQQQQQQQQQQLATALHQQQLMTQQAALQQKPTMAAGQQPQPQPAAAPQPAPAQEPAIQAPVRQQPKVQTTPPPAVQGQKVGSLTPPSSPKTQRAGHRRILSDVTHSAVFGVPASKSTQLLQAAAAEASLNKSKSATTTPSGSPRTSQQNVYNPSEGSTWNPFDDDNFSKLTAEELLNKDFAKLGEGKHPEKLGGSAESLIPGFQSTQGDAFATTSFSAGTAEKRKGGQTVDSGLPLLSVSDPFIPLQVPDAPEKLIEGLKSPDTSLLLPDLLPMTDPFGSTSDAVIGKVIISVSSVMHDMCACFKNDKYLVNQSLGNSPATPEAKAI
pIC50: −log10 of the molar value.
ATTRIBUTE_MEASURED: pIC50

Recorded results for 3 compounds are shown here.
COMPOUND | pIC50
Cc1cccc(-c2cnc3ccc(NC[C@@H]4CCCN4C(=O)CC(C)C)nn23)c1 | ≥ 6.00
CC(=O)Nc1cccc(-c2cnc3ccc(NCCOC4CCCC4)nn23)c1 | ≥ 7.00
COc1ccccc1CCNc1ccc2ncc(-c3ccc(CN)cc3)n2n1 | ≥ 8.00

Summary for this compound, `CCOC(=O)N1CCC[C@H]1CNc1ccc2ncc(-c3ccccc3OC)n2n1` : pIC50 is ≥ 7.00

Summary for this compound, CC(C)(C)CCNc1ccc2ncc(-c3ccc(C4CCCN4)cc3)n2n1 (stereo not shown) : pIC50 is ≥ 6.00

====

target: AAK1 (Homo sapiens, UniProt Q2M2I8); construct: HA; expressed in transfected cells; host or cells: HEK293F; experiment: HEK281 cell-based assay (phospho-mu2 Western blot in transfected HEK293F cells); details: 3 hours incubation, read-out: CBA IC50
pIC50: −log10 of the molar value.
ATTRIBUTE_MEASURED: pIC50

Summary for this molecule, `CCCCNc1ccc2ncc(-c3ccc(CNCCC)cc3)n2n1` : pIC50 is ≥ 6.00

====

molecular target: AAK1 (Homo sapiens, UniProt Q2M2I8); construct: HA; expressed in transfected cells; host or cells: HEK293F; assay: HEK281 cell-based assay (phospho-mu2 Western blot in transfected HEK293F cells); settings: 3 hours incubation, read-out: CBA IC50
pIC50: −log10 of the molar value.
pIC50 values for the compounds below.

COMPOUND | pIC50
NC(=O)c1ccc(-c2cnc3ccc(NCCc4ccccc4OC(F)(F)F)nn23)cc1 | ≥ 8.00
COc1ncccc1-c1cnc2ccc(N3CC[C@H](N(C)C(=O)N4CCCC4)C3)nn12 | ≥ 7.00
CC(C)CC(=O)N1CCC[C@H]1CNc1ccc2ncc(-c3ccncc3)n2n1 | ≥ 7.00
CCCCCNc1ccc2ncc(-c3ccc(CNCCOC)cc3)n2n1 | ≥ 6.00
CN(CCNc1ccc2ncc(-c3ccccc3F)n2n1)C(=O)OC(C)(C)C | ≥ 7.00

Entry COc1ncccc1-c1cnc2ccc(N3CCC(N(C)C(=O)OC(C)(C)C)C3)nn12 (stereo not drawn) , tested on AAK1 (Homo sapiens, UniProt Q2M2I8), has a reported pIC50 of ≥ 7.00

Entry `CN(CCNc1ccc2ncc(-c3ccc(C#N)cc3)n2n1)C(=O)CC(C)(C)C` , tested on AAK1 (Homo sapiens, UniProt Q2M2I8), has a reported pIC50 of ≥ 7.00

Entry `NCc1ccc(-c2cnc3ccc(NCCCCCF)nn23)cc1` , tested on AAK1 (Homo sapiens, UniProt Q2M2I8), has a reported pIC50 of ≥ 6.00

Entry `COc1ccc(OC)c(-c2cnc3ccc(N4CCN(C(=O)OC(C)C)CC4)nn23)c1` , tested on AAK1 (Homo sapiens, UniProt Q2M2I8), has a reported pIC50 of ≥ 7.00

Entry `CC(C)(C)OC(=O)N1CCC[C@H]1CNc1ccc2ncc(C(F)F)n2n1` , tested on AAK1 (Homo sapiens, UniProt Q2M2I8), has a reported pIC50 of ≥ 6.00

Entry `CCN(CC)CCNC(=O)c1ccc(-c2cnc3ccc(NCCOC(C)C)nn23)cc1` , tested on AAK1 (Homo sapiens, UniProt Q2M2I8), has a reported pIC50 of ≥ 7.00

Entry `O=C(OC1CCCC1)N1CCC[C@H]1CNc1ccc2ncc(-c3ccncc3)n2n1` , tested on AAK1 (Homo sapiens, UniProt Q2M2I8), has a reported pIC50 of ≥ 8.00

Entry `CNC(=O)c1ccc(-c2cnc3ccc(NCCN(C)C(=O)OC(C)(C)C)nn23)cc1` , tested on AAK1 (Homo sapiens, UniProt Q2M2I8), has a reported pIC50 of ≥ 7.00

Entry `COc1cc(C)c(F)cc1-c1cnc2ccc(N3CCN(C(=O)OC(C)C)CC3)nn12` , tested on AAK1 (Homo sapiens, UniProt Q2M2I8), has a reported pIC50 of ≥ 8.00

Data origin: patent US8969565B2
